Measured pIC50, listed per entry for reference.
system: mouse spleen cells; assay: Proliferation inhibition assay for mouse spleen cells; type: cell-based; conditions: 72 h, LPS 100 μg/mL, 3 days, Alamar Blue, read-out: Inhibition of LPS response
pIC50: −log10 of the molar value.

[
  {
    "line notation": "COc1cccc2c1nc(C(F)F)n2-c1nc(N2CCOCC2)cc(N2C[C@@H](C)O[C@@H](C)C2)n1",
    "pIC50": "5.00 to 7.00"
  },
  {
    "line notation": "Cc1nc2ccccc2n1-c1nc(N2CCOCC2)nc(N2CCOCC2)n1",
    "pIC50": "5.00 to 7.00"
  },
  {
    "line notation": "CC1(C)CN(c2nc(N3CCOCC3)nc(-n3c(C(F)F)nc4c(Cl)cc(N)cc43)n2)CCO1",
    "pIC50": "7.00 to 9.00"
  },
  {
    "line notation": "FC(F)c1nc2ccccc2n1-c1nc(N2CCCCC2)nc(N2CCOCC2)n1",
    "pIC50": "5.00 to 7.00"
  }
]

* * *

assay: Toxicologic test for single oral administration; settings: Sprague-Dawley (SD), rat, in vivo; SD male rats, single oral dose

[
  {
    "molecule": "COc1cccc2c1nc(C(F)F)n2-c1nc(N2CCOCC2)cc(N2C[C@@H](C)O[C@@H](C)C2)n1 [Compound 24]",
    "LD50": "600 to 900 mg/kg"
  }
]

* * *

Test system: PC-3 prostate cancer cells
Assay: Proliferation inhibitory activity on solid tumor cells, PC-3
Assay type: cell-based
Details: 72 hours
Description: Used in the test were MCF-7 cells which were established from human breast cancer and were cultured routinely under the conditions of 37° C. and 5% CO2, in MEM medium supplemented with 10% fetal calf serum, 25 mM of HEPES and 0.1 mg/ml kanamycin. The MCF-7 cells in a logarithmic growth phase were treated with trypsin/EDTA to prepare single cell suspension adjusted to 4.0×10^4 cells/ml in MEM medium (supplemented with 10% fetal calf serum, 25 mM of HEPES and 0.1 mg/ml kanamycin). […]

[
  {
    "line notation": "OCCCN1CCN(c2nc(N3CCOCC3)nc(-n3c(C(F)F)nc4ccccc43)n2)CC1",
    "GI50 / nM": 550
  },
  {
    "line notation": "O=C(c1ccco1)N1CCN(c2nc(N3CCOCC3)nc(-n3c(C(F)F)nc4ccccc43)n2)CC1",
    "GI50 / nM": 320
  },
  {
    "line notation": "O=C(Cc1ccccc1)N1CCN(c2nc(N3CCOCC3)nc(-n3c(C(F)F)nc4ccccc43)n2)CC1",
    "GI50 / nM": 320
  },
  {
    "line notation": "COCC(=O)N1CCN(c2nc(N3CCOCC3)nc(-n3c(C(F)F)nc4ccccc43)n2)CC1",
    "GI50 / nM": 510
  },
  {
    "line notation": "OCCN1CCN(c2nc(N3CCOCC3)nc(-n3c(C(F)F)nc4ccccc43)n2)CC1",
    "GI50 / nM": 310
  }
]

* * *

melting point by entry:

[
  {
    "compound": "COc1cccc2c1nc(C(F)F)n2-c1nc(N2CCOCC2)cc(N2CCO[C@@H](C)[C@H]2C)n1 (relative stereo) [Compound 37]",
    "melting point": "176 to 178 °C"
  },
  {
    "compound": "CN(C)C(=O)N1CCN(c2nc(N3CCOCC3)nc(-n3c(C(F)F)nc4ccccc43)n2)CC1 [Compound 32]",
    "melting point": "203 to 205 °C"
  },
  {
    "compound": "CC1(C)COCCN1c1cc(N2CCOCC2)nc(-n2c(C(F)F)nc3c(O)cccc32)n1 [Compound 22]",
    "melting point": "204 to 206 °C"
  },
  {
    "compound": "O=C(Cc1ccccc1)N1CCN(c2nc(N3CCOCC3)nc(-n3c(C(F)F)nc4ccccc43)n2)CC1 [Compound 29]",
    "melting point": "178 to 181 °C"
  }
]

meta.source: patent US8338414B2
